Each entry below carries its recorded GI50.
# Tested on: HT-29
# Experiment description: NCI tumour cell line growth inhibition, 48 h
Activity calls are given as the source filed them. Rule as the data show it: active = GI50 up to about 1.1 µM and inactive = higher.

# count of solved cases: 4
Compound	Observable	Reported
CCOC(=O)[C@H](C)OC(=O)[C@@](C)(NC(=O)c1ccccc1C(=O)OC)[C@@H]1NC=C(C(=O)OC)CS1	GI50	> 100 µM (inactive)
O=C1c2ccccc2-c2nc(-c3cccnc3)cc3c2c1nc1ccccc13	GI50	> 100 µM (inactive)
CC(C)CNP(=O)(NCC(C)C)Oc1ccc(CC(NC(=O)OCc2ccccc2)C(=O)OCc2ccccc2)cc1 (stereo not given)	GI50	17.2 µM (inactive)
CCO/C=C/C(C)C1(C(=O)OCC)CCCCC1=O (stereo not given)	GI50	> 100 µM (inactive)

Could you now look at the following compound, please?
Item CC1(C)CCCCCCCCCC(C)(CCCCCCCCCCCCO)C1=O (stereo not given) has what recorded GI50?
16.9 µM (inactive)
